Biological target: COX-2 (Homo sapiens)
Construct: purchased Cayman Chemical Company 701080
Sequence (P35354 18-604): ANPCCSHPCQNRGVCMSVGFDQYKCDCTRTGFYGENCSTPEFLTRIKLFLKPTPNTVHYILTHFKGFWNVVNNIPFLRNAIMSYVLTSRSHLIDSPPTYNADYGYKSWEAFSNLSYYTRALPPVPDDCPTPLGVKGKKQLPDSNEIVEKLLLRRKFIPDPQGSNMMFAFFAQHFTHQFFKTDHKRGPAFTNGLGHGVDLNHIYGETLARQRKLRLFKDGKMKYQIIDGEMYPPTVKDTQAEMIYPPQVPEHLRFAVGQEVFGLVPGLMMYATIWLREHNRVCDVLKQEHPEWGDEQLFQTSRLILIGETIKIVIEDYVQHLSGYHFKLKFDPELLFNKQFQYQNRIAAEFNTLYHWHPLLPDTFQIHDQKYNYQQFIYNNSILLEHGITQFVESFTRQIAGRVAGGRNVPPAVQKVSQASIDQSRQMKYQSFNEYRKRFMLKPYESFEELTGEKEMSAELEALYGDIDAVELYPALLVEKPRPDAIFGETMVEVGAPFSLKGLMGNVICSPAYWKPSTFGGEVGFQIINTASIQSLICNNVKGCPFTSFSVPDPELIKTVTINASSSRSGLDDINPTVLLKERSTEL
Experiment: COX-2 inhibitory screening assay (Cayman kit)
Assay type: biochemical
Settings: at 0.100 mg/mL; read-out: COX-2 mean % inhibition ± SD
Binary call on inhibition at 100 µg/mL: satisfied from 20% upward, not satisfied beneath that.

- O=c1c2cc(Br)ccc2[nH]c(=S)n1-c1ccc(C(F)(F)F)cc1: not satisfied
- COc1cc2nc(SCc3cccc([N+](=O)[O-])c3)n(-c3cccc(C(F)(F)F)c3)c(=O)c2cc1OC: not satisfied
- COc1cc2nc(SCc3ccc(Cl)cc3)n(-c3ccc([N+](=O)[O-])cc3)c(=O)c2cc1OC: not satisfied
- O=c1c2cc(Br)ccc2[nH]c(=S)n1-c1cccc(C(F)(F)F)c1: not satisfied
- O=c1c2cc(Br)ccc2[nH]c(=S)n1-c1ccc([N+](=O)[O-])cc1: satisfied
- O=c1c2cc(Br)ccc2nc(SCc2ccc(Cl)cc2)n1-c1cccc(C(F)(F)F)c1: not satisfied
- O=c1c2cc(Cl)ccc2[nH]c(=S)n1-c1cccc(C(F)(F)F)c1: satisfied
